Test system: NCI-H460
test-details: Antiproliferative activity against human NCI-H460 cells assessed as inhibition of cell growth incubated for 48 hrs by MTT assay
Format: functional, cell-based
measurement-parameters: NCI-H460, 48 h
pIC50: −log10 of the molar value.
Entries and their pIC50
measurement-type: pIC50

chemical_string=CN1c2ccccc2C(=O)N2CCc3c([nH]c4ccccc34)[C@H]21 measured=4.77
chemical_string=CN1c2ccccc2C(=O)N2CCc3c([nH]c4ccc(O)cc34)[C@H]21 measured=4.56
chemical_string=COCCOc1cc2ncnc(Nc3cccc(-c4cn(CCOCCOCCOCCNC(=O)Cn5c(C)c(COC(=O)N(C)CCN(C)C(=O)Oc6ccc7[nH]c8c(c7c6)CCN6C(=O)c7ccccc7N(C)[C@H]86)c6c5C(=O)C=C(OC)C6=O)nn4)c3)c2cc1OCCOC measured=4.98
